# tested system: T1, Human Factor P (human, UniProt P27918 29-469)
# T1 construct: Bought protein (Complement Technology cat# A139) in SET and Biacore; Factor P of human serum in the functional assays; also called FP; human FP
# T1 sequence (P27918 29-469 limits assumed): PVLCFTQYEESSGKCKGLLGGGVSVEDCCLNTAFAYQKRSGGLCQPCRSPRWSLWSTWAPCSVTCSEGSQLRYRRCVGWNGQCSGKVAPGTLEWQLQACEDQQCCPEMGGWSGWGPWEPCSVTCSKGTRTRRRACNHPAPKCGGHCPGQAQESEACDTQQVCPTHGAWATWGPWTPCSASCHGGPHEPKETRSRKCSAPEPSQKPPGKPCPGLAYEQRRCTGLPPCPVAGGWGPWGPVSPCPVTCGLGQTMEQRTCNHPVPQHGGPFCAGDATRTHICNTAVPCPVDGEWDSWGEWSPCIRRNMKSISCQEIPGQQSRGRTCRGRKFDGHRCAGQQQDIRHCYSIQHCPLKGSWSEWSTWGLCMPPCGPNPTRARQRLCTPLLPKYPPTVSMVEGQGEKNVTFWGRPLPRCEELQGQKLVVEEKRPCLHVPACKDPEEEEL
# measurement description: SET, solution equilibrium titration
observable: Kd (nM)
A number alone suffices; assume nM.

NVS965-T (Fab, V domains shown, NVS965 with heavy chain N30 replaced with threonine) VH: EVQLVQSGAEVKKPGSSVKVSCKASGGTFTSYAISWVRQAPGQGLEWMGRIIPIFGTANYAQKFQGRVTITADESTSTAYMELSSLRSEDTAVYYCARHGGYSFDSWGQGTLVTVSS VL: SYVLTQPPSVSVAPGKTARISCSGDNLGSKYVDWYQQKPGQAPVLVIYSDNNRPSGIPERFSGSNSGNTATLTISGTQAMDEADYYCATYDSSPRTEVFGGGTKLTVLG: 0.052
NVS962-G (Fab, V domains shown, NVS962 with heavy chain N30 replaced with glycine) VH: EVQLVQSGAEVKKPGSSVKVSCKASGGTFGSYAISWVRQAPGQGLEWMGRIIPIFGTANYAQKFQGRVTITADESTSTAYMELSSLRSEDTAVYYCARHGGYSFDSWGQGTLVTVSS VL: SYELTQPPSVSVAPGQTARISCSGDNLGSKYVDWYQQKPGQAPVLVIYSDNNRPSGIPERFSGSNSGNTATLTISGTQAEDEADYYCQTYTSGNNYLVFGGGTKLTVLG: 0.953
NVS806 (Fab, V domains shown) VH: EVQLVQSGAEVKKPGSSVKVSCKASGGTFSSYAISWVRQAPGQGLEWMGRIIPIFGTANYAQKFQGRVTITADESTSTAYMELSSLRSEDTAVYYCARHGGYVFDSWGQGTLVTVSS VL: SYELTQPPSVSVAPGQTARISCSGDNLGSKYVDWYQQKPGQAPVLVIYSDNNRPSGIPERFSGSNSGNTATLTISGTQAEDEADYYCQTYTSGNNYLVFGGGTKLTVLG: 0.018

Input: Could you share which Kd value was measured for NVS807 (Fab, V domains shown) VH: EVQLVQSGAEVKKPGSSVKVSCKASGGTFSSYAISWVRQAPGQGLEWMGRIIPIFGTANYAQKFQGRVTITADESTSTAYMELSSLRSEDTAVYYCARHGGYYFDSWGQGTLVTVSS VL: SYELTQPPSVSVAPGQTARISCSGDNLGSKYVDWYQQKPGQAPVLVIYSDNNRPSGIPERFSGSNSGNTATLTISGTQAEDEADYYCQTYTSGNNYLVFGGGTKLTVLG ?
Output: 0.027

Input: Could you share which Kd value was measured for NVS965-Q (Fab, V domains shown, NVS965 with heavy chain N30 replaced with glutamine) VH: EVQLVQSGAEVKKPGSSVKVSCKASGGTFQSYAISWVRQAPGQGLEWMGRIIPIFGTANYAQKFQGRVTITADESTSTAYMELSSLRSEDTAVYYCARHGGYSFDSWGQGTLVTVSS VL: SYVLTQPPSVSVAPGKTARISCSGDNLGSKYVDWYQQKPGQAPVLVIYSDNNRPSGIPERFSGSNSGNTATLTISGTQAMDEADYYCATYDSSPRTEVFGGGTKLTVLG ?
Output: 0.301

Origin of the recorded values: patent US20130295102A1
